Every entry's value here was drawn from patent US12617777B2.

Biological target: human GPR84 receptor (Homo sapiens)
Construct: host or cells: HEK293, transient transfection
Sequence (Q9NQS5 whole entry): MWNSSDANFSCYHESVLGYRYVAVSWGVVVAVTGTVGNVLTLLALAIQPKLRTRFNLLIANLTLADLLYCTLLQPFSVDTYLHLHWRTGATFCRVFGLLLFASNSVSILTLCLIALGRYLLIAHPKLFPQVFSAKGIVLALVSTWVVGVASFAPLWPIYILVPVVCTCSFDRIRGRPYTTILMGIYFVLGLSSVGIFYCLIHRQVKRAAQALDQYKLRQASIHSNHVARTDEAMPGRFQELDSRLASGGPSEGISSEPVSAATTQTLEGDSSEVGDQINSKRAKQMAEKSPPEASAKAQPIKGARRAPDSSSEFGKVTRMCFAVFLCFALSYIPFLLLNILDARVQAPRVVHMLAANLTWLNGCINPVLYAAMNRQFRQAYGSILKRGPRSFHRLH
Assay: Gαi biosensor BRET assay in HEK293 cells (antagonism of ZQ-16)
Format: cell-based
Details: HEK293, single concentration 10 μM (designated F)
Measured parameter: inhibition at 10 µM

// worked examples, inhibition at 10 µM included
CC#Cc1ccc(C)c(N(C)c2cn(CC3OCC4(CC4)CO3)nn2)c1: > 75%
C(#CC1CC1)c1ccc2c(c1)CCc1cnn(CC3CCCCO3)c1-2 (centres unmarked): 25 to 50%
Cc1cc(C#CC2CC2)cnc1-c1cn(C[C@H]2CCCCO2)nn1: > 75%
CCc1cc(C#CCNC(=O)OC(C)C)ccc1-c1cn(CC2CCCCO2)nn1 (centres unmarked): > 75%

// returns reported inhibition at 10 µM for input Cc1cc(C#CC2CC2)ccc1-c1cn(CC2CCCCO2)cn1 (centres unmarked)
50 to 75%

Now this one: OCc1cc(C#CC2CC2)ccc1-c1cn(CC2CCCCO2)nn1 (centres unmarked)
≤ 25%

Now this one: Cc1cc(C#CCNC(=O)OCc2ccccc2)ccc1-c1cn(CC2CCCCO2)nn1 (centres unmarked)
> 75%

Now this one: Cc1cc(C#CCN2CC(C)(C)C2)cnc1-c1cn(CC2Oc3ccccc3O2)nn1
> 75%

Now this one: COC(c1cccc(C#CC2CC2)c1)c1cn(CC2CCCCO2)nn1 (centres unmarked)
> 75%

Now this one: CC(c1ccc(C#CC2CC2)cc1)c1cn(CC2CCCCO2)nn1 (centres unmarked)
50 to 75%
